For reference, Ki measured on D(2) dopamine receptor (Rattus norvegicus):
MEASURED_METRIC: Ki (nM)

Check out these entries, answers already filled in.
>  <MOLECULE>
Cc1cccc(C2CNCCc3c2cc(O)c(O)c3Br)c1 (configuration not stated)

>  <VALUE_UNITS>
nM

>  <Ki>
1070

$$$$
>  <MOLECULE>
Cc1ccccc1C1CN(C)CCc2c1cc(O)c(O)c2Br (configuration not stated)

>  <VALUE_UNITS>
nM

>  <Ki>
409

$$$$

1: Cc1ccc(C2CN(C)CCc3c2cc(O)c(O)c3Cl)cc1 (configuration not stated)
2: Cc1ccc(C2CN(C)CCc3c2cc(O)c(O)c3Br)cc1 (configuration not stated)
3: C=CCN1CCc2c(cc(O)c(O)c2Br)C(c2cccc(C)c2)C1 (configuration not stated)
**Q:** Arrange the 3 entries by Ki so the values rise. State the ranking by listing the labels in the requested order.
**A:** 3, 1, 2
(3: 83.8 nM, 1: 362 nM, 2: 1030 nM)
